Target: c-kit (Homo sapiens)
Construct: MO7e (human megakaryocytic leukemia cell line) which had been arrested for 20 hr; endogenous in cells; host or cells: MO7e human megakaryocytic leukemia cell line
Sequence (P10721 26-976): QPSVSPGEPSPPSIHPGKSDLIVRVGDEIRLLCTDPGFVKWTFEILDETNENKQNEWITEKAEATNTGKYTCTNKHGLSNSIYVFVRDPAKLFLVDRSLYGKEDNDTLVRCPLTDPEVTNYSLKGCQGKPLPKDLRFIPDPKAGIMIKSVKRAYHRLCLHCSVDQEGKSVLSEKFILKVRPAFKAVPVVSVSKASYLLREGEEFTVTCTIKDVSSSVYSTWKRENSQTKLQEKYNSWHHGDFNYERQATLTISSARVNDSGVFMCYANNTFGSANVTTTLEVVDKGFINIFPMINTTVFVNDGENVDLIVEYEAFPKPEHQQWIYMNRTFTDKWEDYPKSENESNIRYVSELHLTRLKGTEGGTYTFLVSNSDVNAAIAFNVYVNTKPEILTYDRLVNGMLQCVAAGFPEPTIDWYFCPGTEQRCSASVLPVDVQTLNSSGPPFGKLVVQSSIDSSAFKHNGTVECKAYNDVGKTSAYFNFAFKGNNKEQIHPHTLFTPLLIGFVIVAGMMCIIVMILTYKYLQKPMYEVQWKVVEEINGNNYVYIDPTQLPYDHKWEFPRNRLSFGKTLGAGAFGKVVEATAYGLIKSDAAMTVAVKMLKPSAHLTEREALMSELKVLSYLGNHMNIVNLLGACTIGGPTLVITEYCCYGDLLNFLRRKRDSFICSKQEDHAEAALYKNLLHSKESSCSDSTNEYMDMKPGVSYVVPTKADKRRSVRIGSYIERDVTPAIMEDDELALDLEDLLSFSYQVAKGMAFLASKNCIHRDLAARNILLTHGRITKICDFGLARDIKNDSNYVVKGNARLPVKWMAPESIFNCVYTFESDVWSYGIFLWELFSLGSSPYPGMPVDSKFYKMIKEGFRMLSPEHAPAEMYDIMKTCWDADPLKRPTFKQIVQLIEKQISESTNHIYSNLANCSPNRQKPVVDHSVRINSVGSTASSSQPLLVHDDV
Assay: Inhibitory activity against c-kit autophosphorylation (MO7e cells, h-SCF)
Assay type: cell-based
Conditions: Mo7e, figure in parentheses in −( ); at 1000 nM
parameter_measured: inhibition at 1 µM (%)

Example results:
{"smiles_str": "COc1cc2nccc(Oc3ccc(NCCCOc4ccccc4C)c(C)c3C)c2cc1OC", "target_system": "c-kit (Homo sapiens)", "inhibition at 1 µM, %": 39}
{"smiles_str": "COc1cc2nccc(Oc3ccc(NC(=S)NC(=O)c4ccc(F)cc4F)c(C)c3C)c2cc1OC", "target_system": "c-kit (Homo sapiens)", "inhibition at 1 µM, %": 23}

(I) COc1cc2nccc(Oc3ccc(NC(=S)NC(=O)c4cccc(C)c4)c(C)c3)c2cc1OC
(II) COc1cc2nccc(Oc3ccc(NC(=S)NC(=O)N4c5ccccc5CCc5ccccc54)cc3Cl)c2cc1OC
Data request: Of I and II , whose reported inhibition at 1 µM is numerically smaller? Could you answer with the label of the item you picked?
Data returned: II
